biological target: pooled human IgG (human IgG1,2,3 and 4)
VALUE_KIND: Enzyme Activity Endpoint Assay (purified): IgG (ng/µL)
Please respond with the number in ng/µL and leave the unit unwritten.

In the examples that follow, each entry is paired with its recorded Enzyme Activity Endpoint Assay (purified): IgG.
PRT-366 (protein) MSQTEDSESLQRLRDIEDFQAEKEKQNVVYTKWLDGVDVKDHDFRKIVDGNSAYYATPLLNGRGFYDINKDFNRDNDKCAAAVAANMFHYWLDRNRDNVDRFLRQNPEKHGIIELPDGQLKLSDFLNTYESDDGYRDKSKLFDFISNNFNGPVWTDKLLDNYINGYAYNYKYGRTIEDSTKNTSKINFFKEVFNEKILTNNHSIRNQNEFSVLLSEALYTGKAIGLSYGPAGLRHSLGHIISVWGADLDADGNVVAIYVTDSDDKKLTIGDERVGLKRYKISTDDEGRLRLTAYEETHNTGGQVRGLWTLDTGKQAWADYFDKTEQTGTDQAEQ ... 777
PRT-370 (protein) MSQTEDSESLQRLRDIEDFQAEKKDQNVVYTKWLDGVDVKDHDFRKIVDGNSAYYATPLLNGRGWYDINKDFNRDNDKCAAAVAANMFHYWLDRNRDNVDRFLRQNPEKHGIIELPDGQLKLSDFLNTYESDDGYRDKSKLFDFISENFNGPVWTDKLLDNYINGYAYNYKYGRTIEDSTKNTSKINFFKEVFNEKILTNNHSIRNQNEFSVLLIEALYTGKAIGLSYGPAGLRHSLGHIISVWGADLDADGNVVAIYVTDSDDKKLTIGDERVGLKRYKISTDDEGRLRLTAYEETHNTGGQVRGLWTLDTGKQAWADYFDKTEQTGTDQAEQ ... 0
PRT-326 (protein) MTITSVWTKGVTPPTPEDFRENNEDVLHAPYVANQGWYDITKTFDGKDNLLCGAATAGNMLHWWFDQNKEEIERYLKKHPEKQKIIFGNQELFDVKAAIDTKDSQTNSKLFDYFRDKAFPNLSARQLGVMPDLVLDMFINGYYLNLGKTQSTDVNRPYQDKDKRGGIFDAVFTRGDQTTLLTARHDLKNKGLNEISDLIKQELTEGKALALSHTYANVRINHVINLWGADFDAEGELIAIYVTDSDANPSIGMKKYFVGRNANGKVAISAKKIEGDNIGAQVLGLFTLSTGQDQWQKLS ... 458
PRT-351 (protein) MSQTEDSESLQRLRDIEDFQAEKKMQNVVYTKWLDGVDVKDHDFRKIVDGNSAYYATPLLNGRGFYDINKDFNRDSDKCAAAVAANMFHYWLDINRDNVDRFLRQNPEKHGIIELPDGQLKLSDFLNTYESDHGYRDKSKLFDFISENFNGPVWTDKLLDNYINGYAYNYKYGRTIEDPTKNTSKINFFKEVFNEKILTNNHSIRNQNEFSVLLIEALYTGKAIGLSYGPAGLRHSLGHIISVWGADLDADGNVVAIYVTDSDDKKLTIGDERVGLKRYKISTDDENRLRLTAYEETHNTGGQIRGLWTLDTGKYAWADYFDKTEQTGTDQAEQ ... 86
PRT-450 (protein) MVTSVWTKGVTPPTDFRKIVDGNIAYYHAPYKAGQGWYDITKAFDGGDDLLCGAATAGNMLHWWFDQNKDQIEAYLKEHPEKQKINFNGEQMFDVKEAIDTKDDQTNSELFNYFKEKAFPYLSTKHLGVFPDHVLDMFINGYRLSLTNHGPTPVKEGSKDPRGGIFDAVFTRGDQSKLLTSRHDLKNKTLKEISDLIKQELTEGKALALSHTYANVRINHVINLWGADFDSNGNLEAIYVTDSDSNASIGMKKYFVGVNSAGKVAISAKEIEDDNIGAQVLGLFTLSTGQDIWNQTNLEHHHHHH ... 227

Query: # return recorded Enzyme Activity Endpoint Assay (purified): IgG for input PRT-511 (protein) MITSVWTKGVTPPAKFRKIVDGNIAYYHAPYVANQGWYDITKTFNGKDDLLCGAATAGNMLHWWFDQNKEEIEAYLKKHPEKQKIMFGDQELLDVRKVINTKDSQTNSALFNYFKDKAFPNLSARRLGVMPDLVLDMFINGYYLNVYKTQTTDVNRTYQTKDRRGGIFDAVFTRGDQSKLLTERHDLKNKTLKEISDLIKQELTEGKALGLSHTYANVRINHVINLWGADFDSNGNLEAIYVTDSDSNASIGMKKYFVGVNSAGKVAISAKEIKEDNIGAQVLGLFTLSTGQDIWNQTNLEHHHHHH
Result: 62

Query: # return recorded Enzyme Activity Endpoint Assay (purified): IgG for input PRT-304 (protein) MVTSVWTKGVTPPTDFIKGEDVFHAPYDAGQGWYDITKTFNGKDDLLCGAATAGNMLHWWFDQNKEYIEAYLKKHPEKQKIMFGDQELLDVRKAINTKGSQKNSELFNYFRDKAFPNLSARRLGVMPDLVLDMFINGYYLNVTKTQTTDVNRTYQEKDKRGGIFDAVFTRGDQSKLLTSRHDFKEKGLKEISDLIKQELTEGKALGLSHTYANVRISHVINLWGADFDSDGNLKAIYVTDSDSNASIGMKKYFVGVNSSGKVAISAKEIKEDNIGAQVLGLFTLSTGQDIWNQTN
Result: 0

Query: # return recorded Enzyme Activity Endpoint Assay (purified): IgG for input PRT-364 (protein) MSQTEDSESLQRLRDIEDFQAEKKKQNVVYTKWLDGVDVKDHDFRKIVDGNEAYYATPLLNGRGFYDINKDFNRDSDKCAAAVAANMFHYWLDRNRDNVDRFLRQNPEKHGIIELPDGQLKLSDFLNTYESDDGYRDKSKLFDFISENFNGPVWTDKLLDNYINGYAYNYKYGRTIEDPTKNTSKINFFKEVFNEKILTNNHSIRNQNELSVLLSEALYTGKAIGLSYGPAGLRHSLGHIISVWGADLDADGNVVAIYVTDSDDKKLTIGDERVGLKRYKISTDDEGRLRLTAYEETHNTGGQIRGLWTLDTGKQAWADYFDKTEQTGTDQAEQ
Result: 0
